Study System: UniProt:Q99816
Sequence (Q99816 whole entry): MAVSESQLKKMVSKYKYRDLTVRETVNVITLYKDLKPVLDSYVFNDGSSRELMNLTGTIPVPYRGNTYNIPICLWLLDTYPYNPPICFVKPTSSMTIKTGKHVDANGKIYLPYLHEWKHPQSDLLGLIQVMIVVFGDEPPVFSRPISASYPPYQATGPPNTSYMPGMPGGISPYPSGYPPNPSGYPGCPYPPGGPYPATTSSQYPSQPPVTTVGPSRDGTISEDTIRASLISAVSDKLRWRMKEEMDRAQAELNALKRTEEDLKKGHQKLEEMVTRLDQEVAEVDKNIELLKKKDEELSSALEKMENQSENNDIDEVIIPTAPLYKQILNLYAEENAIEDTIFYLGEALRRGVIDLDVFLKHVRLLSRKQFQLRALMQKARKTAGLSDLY
*1 amine or outer side, *2 acyl side, *3 side chain or, on linkers, in order; H or OH if unused. Where a SMILES comes first, the peptide text is derived from it. [ ]: non-standard residue; d: D form. The star is where a group is joined. ξ: configuration not given here. Fluorescein(5-NHCS) = O=C1OC2(c3ccc(O)cc3Oc3cc(O)ccc32)c2cc(NC(=S)*)ccc21; X17 = COc1ccc(/C=N\O[C@@H]2C[C@@H](C(=O)[*:2])N([*:1])C2)cc1O; X26 = O=C([C@@H]1C[C@@H](O/N=C\CCc2ccccc2)CN1[*:1])[*:2]; ξPip = O=C(O)C1CCCCN1; Ava = NCCCCC(=O)O
Field: pIC50. Provide a value for each of the compounds that follow.
Numbers only, as −log10 of the molar value.

[[record]]
compound = "COc1ccc(/C=N\\O[C@@H]2C[C@@H](C(=O)N[C@@H](CCC(=O)O)C(=O)N[C@@H](CCC(=O)O)C(N)=O)N(C(=O)C3CCCCN3C(=O)[C@H](C)NC(=O)[C@@H](NC(=O)[C@@H]3CCCN3C(=O)[C@H](CCC(=O)O)NC(=O)[C@@H]3CCCN3C(=O)CCCCNC(=S)Nc3ccc4c(c3)C3(OC4=O)c4ccc(O)cc4Oc4cc(O)ccc43)[C@@H](C)O)C2)cc1O (some centres not stated) ({Fluorescein(5-NHCS)-Ava}-PEPTA[ξPip][X17]EE-NH2)"
recorded_endpoint = "pIC50"
measurement = 4.64


In the following, a different compound is considered.
Noted for C[C@H](NC(=O)[C@@H](NC(=O)[C@@H]1CCCN1C(=O)[C@H](CCC(=O)O)NC(=O)[C@@H]1CCCN1C(=O)CCCCNC(=S)Nc1ccc2c(c1)C1(OC2=O)c2ccc(O)cc2Oc2cc(O)ccc21)[C@@H](C)O)C(=O)N1CCCCC1C(=O)N1C[C@H](O/N=C\CCc2ccccc2)C[C@H]1C(=O)N[C@@H](CCC(=O)O)C(=O)N[C@@H](CCC(=O)O)C(N)=O (some centres not stated) ({Fluorescein(5-NHCS)-Ava}-PEPTA[ξPip][X26]EE-NH2) : its pIC50 reads 4.59

These data points were gathered from ChEMBL document CHEMBL1140819.
